target: T1, human TSH receptor (full length), coated on tubes (human, UniProt P16473 22-764)
T1 construct: TSHR coated tubes as described in WO2004/050708A2; The receptor is full length and held on plastic tubes through a mouse MAb to the TSHR; also called thyroid stimulating hormone receptor
protocolDescription: inhibition of 125I-K1-70 Fab (competitor) binding to TSHR coated tubes; 0.001 µg/mL in assay buffer
Entries and their Inhibition of binding (%) values follow.
propertyName: Inhibition of binding (%)

binder: K1-70 IgG (antibody, V domains shown, Human IgG1 lambda purified from hetero-hybridoma supernatant; also called human monoclonal autoantibody to the TSHR with TSH antagonist activity) VH: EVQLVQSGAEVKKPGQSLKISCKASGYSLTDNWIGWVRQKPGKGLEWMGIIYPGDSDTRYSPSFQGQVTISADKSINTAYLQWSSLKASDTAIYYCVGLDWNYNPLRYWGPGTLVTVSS VL: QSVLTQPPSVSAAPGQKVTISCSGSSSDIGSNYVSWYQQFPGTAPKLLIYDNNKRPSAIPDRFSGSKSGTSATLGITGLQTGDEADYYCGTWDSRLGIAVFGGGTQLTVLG
scaleUnit: %
number: 5.5
--
binder: K1-18 IgG (antibody, V domains shown, Human IgG1 kappa purified from hetero-hybridoma supernatant; also called human monoclonal autoantibody to the TSHR with TSH agonist activity) VH: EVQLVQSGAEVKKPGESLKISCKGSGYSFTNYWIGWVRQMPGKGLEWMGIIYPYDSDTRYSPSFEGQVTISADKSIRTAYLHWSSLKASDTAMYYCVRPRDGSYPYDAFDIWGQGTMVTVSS VL: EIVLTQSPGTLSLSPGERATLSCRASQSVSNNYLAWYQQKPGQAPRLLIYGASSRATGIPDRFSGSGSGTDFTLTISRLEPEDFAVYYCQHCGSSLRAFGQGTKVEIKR
scaleUnit: %
number: 5.9
--
binder: K1-18 Fab (Fab, V domains shown) VH: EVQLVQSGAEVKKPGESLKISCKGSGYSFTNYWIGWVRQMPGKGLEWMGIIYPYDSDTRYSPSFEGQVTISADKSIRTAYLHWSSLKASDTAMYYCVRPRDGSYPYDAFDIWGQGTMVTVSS VL: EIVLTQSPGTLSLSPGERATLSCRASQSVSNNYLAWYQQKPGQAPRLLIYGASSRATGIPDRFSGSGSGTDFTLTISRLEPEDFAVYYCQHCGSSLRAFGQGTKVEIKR
scaleUnit: %
number: 3.8
